# assay-procedure: Pharmacokinetic analysis in plasma and brain
# Type: in vivo
# test-context: male, mouse; blood plasma, 30 mg/kg oral, C57BL/6J mice; read-out: AUC0-t
# Method: C57BL/6J (Jax:000664) male mice were used for pharmacokinetic analysis of IBC. Mice were randomly sorted into 9 groups (n = 5). 30 mg/kg oral dose of IBC (1% DMSO +70% PEG-200 + 29% water) was given to mice. Blood or brain samples were collected at 0, 0.25, 0.5, 1, 2, 4, 6, 8 and 24 h. […] The organic layer was separated and dried in a vacuum, reconstituted with acetonitrile, and analyzed by LC-MS/MS [SRM transition of IBC and IS (Phenacetin) is 325.2 & gt; 149.0 and 180.2 & gt; 110.2 in Positive mode]. […]

| chemical-structure | units-of-measure | AUC0-t |
| --- | --- | --- |
| CC(C)=CCc1c(O)ccc(C(=O)/C=C/c2ccc(O)cc2)c1O | ng·h/mL | 548 |

====

# assay-procedure: Pharmacokinetic analysis in plasma and brain
# Format: in vivo
# test-context: male, mouse; blood plasma, 30 mg/kg oral, C57BL/6J mice
measurement-label: Tmax (min)

| molecule | quantitative-readout |
| --- | --- |
| CC(C)=CCc1c(O)ccc(C(=O)/C=C/c2ccc(O)cc2)c1O [IBC, isobavachalcone] | 36 |

====

# assay-procedure: Pharmacokinetic analysis in plasma and brain
# Assay type: in vivo
# test-context: male, mouse, brain and plasma; 30 mg/kg oral, C57BL/6J mice; read-out: brain-to-plasma ratio
# Method: C57BL/6J (Jax:000664) male mice were used for pharmacokinetic analysis of IBC. Mice were randomly sorted into 9 groups (n = 5). 30 mg/kg oral dose of IBC (1% DMSO +70% PEG-200 + 29% water) was given to mice. Blood or brain samples were collected at 0, 0.25, 0.5, 1, 2, 4, 6, 8 and 24 h. […] The organic layer was separated and dried in a vacuum, reconstituted with acetonitrile, and analyzed by LC-MS/MS [SRM transition of IBC and IS (Phenacetin) is 325.2 & gt; 149.0 and 180.2 & gt; 110.2 in Positive mode]. […]

| chemical-structure | Kp |
| --- | --- |
| CC(C)=CCc1c(O)ccc(C(=O)/C=C/c2ccc(O)cc2)c1O | 0.12 to 0.16 |

====

# assay-procedure: Pharmacokinetic analysis in plasma and brain
# Type: in vivo
# test-context: male, mouse; brain, 30 mg/kg oral, C57BL/6J mice
measurement-label: Cmax (ng/g)

| molecule | quantitative-readout |
| --- | --- |
| CC(C)=CCc1c(O)ccc(C(=O)/C=C/c2ccc(O)cc2)c1O [IBC, isobavachalcone] | 34 |

====

# assay-procedure: Pharmacokinetic analysis in plasma and brain
# Format: in vivo
# test-context: male, mouse; blood plasma, 30 mg/kg oral, C57BL/6J mice
measurement-label: Cmax

| compound | measurement-label | result |
| --- | --- | --- |
| CC(C)=CCc1c(O)ccc(C(=O)/C=C/c2ccc(O)cc2)c1O [IBC, isobavachalcone] | Cmax | 208 ng/mL |

Value source: paper PMC11965660
